Assignment: determine reported FACS binding data for the given binders.
- System under test: Mutant CD33-GFP JS23 (L23N) on 293FT cells (UniProt P20138)
- Sequence (P20138 18-364 L23N): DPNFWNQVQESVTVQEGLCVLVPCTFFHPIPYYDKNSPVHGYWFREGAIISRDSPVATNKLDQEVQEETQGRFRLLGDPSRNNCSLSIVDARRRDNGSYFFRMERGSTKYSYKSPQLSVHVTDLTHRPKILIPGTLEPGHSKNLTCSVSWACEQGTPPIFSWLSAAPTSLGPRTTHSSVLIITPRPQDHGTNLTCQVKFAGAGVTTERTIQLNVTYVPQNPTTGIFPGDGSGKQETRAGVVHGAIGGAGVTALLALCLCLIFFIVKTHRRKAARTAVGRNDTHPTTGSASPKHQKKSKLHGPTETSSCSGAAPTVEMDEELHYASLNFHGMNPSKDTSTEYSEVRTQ
- Assay procedure: FACS, mutant CD33-GFP on 293FT cells
One number for each entry.

Binder: sdCD33_5 (VHH, sdAb from a naive llama phage library; also called 413; sdAb413) VHH: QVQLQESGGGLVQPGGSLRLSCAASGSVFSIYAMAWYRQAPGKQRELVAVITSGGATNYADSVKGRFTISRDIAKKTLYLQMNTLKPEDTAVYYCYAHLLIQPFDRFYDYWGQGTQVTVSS
Observed property: FACS binding data
Assay value: 98.4

Please state FACS binding data for every binder in the list that follows.
1. sdCD33_3 (VHH) VHH: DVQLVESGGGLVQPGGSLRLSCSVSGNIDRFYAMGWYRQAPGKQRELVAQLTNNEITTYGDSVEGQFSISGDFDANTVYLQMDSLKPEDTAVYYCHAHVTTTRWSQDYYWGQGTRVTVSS
2. sdCD33_6 (VHH, sdAb from a naive llama phage library; also called 416; sdAb416) VHH: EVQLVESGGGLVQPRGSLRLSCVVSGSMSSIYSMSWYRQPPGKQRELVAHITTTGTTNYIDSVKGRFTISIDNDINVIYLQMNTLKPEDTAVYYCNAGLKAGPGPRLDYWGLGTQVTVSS
3. sdCD33_11 (VHH, sdAb from a naive llama phage library; also called 430; sdAb430) VHH: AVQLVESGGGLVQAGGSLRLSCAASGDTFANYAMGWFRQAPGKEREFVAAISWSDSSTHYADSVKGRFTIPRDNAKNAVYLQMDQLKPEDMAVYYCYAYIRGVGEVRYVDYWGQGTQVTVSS
4. sdCD33_2 (VHH) VHH: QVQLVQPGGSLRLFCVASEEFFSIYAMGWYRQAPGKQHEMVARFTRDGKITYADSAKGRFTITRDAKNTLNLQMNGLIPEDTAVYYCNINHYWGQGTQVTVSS

1: 99.1; 2: 94.3; 3: 99.2; 4: 95.4

Measured FACS binding data of sdCD33_9 (VHH, sdAb from a naive llama phage library; also called 426; sdAb426) VHH: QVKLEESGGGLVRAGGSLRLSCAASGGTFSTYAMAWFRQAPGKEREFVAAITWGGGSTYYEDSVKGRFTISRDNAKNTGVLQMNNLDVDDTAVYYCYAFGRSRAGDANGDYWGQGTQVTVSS : 99.2
